Molecular target: OsWOX13 (Oryza sativa, UniProt Q5QMM3 1-267)
Sequence: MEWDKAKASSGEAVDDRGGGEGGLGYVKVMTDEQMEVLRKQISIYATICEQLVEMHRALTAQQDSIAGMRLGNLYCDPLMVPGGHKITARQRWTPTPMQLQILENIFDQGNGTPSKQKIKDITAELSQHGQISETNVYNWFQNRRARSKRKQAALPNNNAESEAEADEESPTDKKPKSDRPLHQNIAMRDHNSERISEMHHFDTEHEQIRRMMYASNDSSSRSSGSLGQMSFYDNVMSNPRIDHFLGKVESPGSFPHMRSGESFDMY
Assay: protein-binding microarray (RPBM); PBS, 2% BSA, 51.3 ng/ul salmon testes DNA, 50 uM zinc acetate, 200 nM TF, 25 C, 1 h; high values mean tight binding
Details: protein: recombinant; tags: N-terminal polyhistidine and DsRed monomer fusion (pET32a); label: CyDye5-dUTP incorporated in the synthesized complementary strand; 3' TTTTT single-stranded linker to array surface; dsDNA, one strand shown
The full ranking holds about 35,000 sequences; the median of “fluorescence intensity (a.u.)” is about 10,000, and the highest 2% start at about 52,000. For the sample, the highest values were picked, then their nearest neighbours and some sequences at random.
Readout Type: binding signal

Biopolymer Sequence: ACAAAGTAATTGATTTCTTGTGTGAGGCCTTGTTTAGATCCGGAGTCACCTAGTGCAG
Test Target: OsWOX13 (Oryza sativa, UniProt Q5QMM3 1-267)
Readout Type: binding signal
Result: 53400 fluorescence intensity (a.u.)

Biopolymer Sequence: ACATGACTAATCTTATTGACTTAAGAGCTGATTAGGATACCGGAGTCACCTAGTGCAG
Test Target: OsWOX13 (Oryza sativa, UniProt Q5QMM3 1-267)
Readout Type: binding signal
Result: 20200 fluorescence intensity (a.u.)

Biopolymer Sequence: TTAATTAATTTCTCTAATGATTCTCAATCTTGTGTTCTTCCGGAGTCACCTAGTGCAG
Test Target: OsWOX13 (Oryza sativa, UniProt Q5QMM3 1-267)
Readout Type: binding signal
Result: 28300 fluorescence intensity (a.u.)

Biopolymer Sequence: ACTTGACAGCCCTAATTGATCTTATTACATGCAGAGGATCCGGAGTCACCTAGTGCAG
Test Target: OsWOX13 (Oryza sativa, UniProt Q5QMM3 1-267)
Readout Type: binding signal
Result: 56300 fluorescence intensity (a.u.)

Biopolymer Sequence: TAAGTTAATAGATATTTAACGTTTATAATAAGATTTGTTTCGGAGTCACCTAGTGCAG
Test Target: OsWOX13 (Oryza sativa, UniProt Q5QMM3 1-267)
Readout Type: binding signal
Result: 9590 fluorescence intensity (a.u.)

Biopolymer Sequence: CTCCGGTTTAATTTTAATTGATGTTTTGGACAATGGCACGCGGAGTCACCTAGTGCAG
Test Target: OsWOX13 (Oryza sativa, UniProt Q5QMM3 1-267)
Readout Type: binding signal
Result: 44900 fluorescence intensity (a.u.)

Biopolymer Sequence: GTCCTACATATGCTAAATTGGCAATATGTAAAGATTTACTCGGAGTCACCTAGTGCAG
Test Target: OsWOX13 (Oryza sativa, UniProt Q5QMM3 1-267)
Readout Type: binding signal
Result: 4980 fluorescence intensity (a.u.)

Biopolymer Sequence: CATAATTGCACGATCATTGATTTTGGAACATTCTGAGGCTCGGAGTCACCTAGTGCAG
Test Target: OsWOX13 (Oryza sativa, UniProt Q5QMM3 1-267)
Readout Type: binding signal
Result: 57100 fluorescence intensity (a.u.)

Biopolymer Sequence: TCTAATTTCTTCCCTTGCAGATTGATCTTGTTAGTGAGCCCGGAGTCACCTAGTGCAG
Test Target: OsWOX13 (Oryza sativa, UniProt Q5QMM3 1-267)
Readout Type: binding signal
Result: 20700 fluorescence intensity (a.u.)

Biopolymer Sequence: GCCTAATTAATCCATGATTAACCATAAGTGCTGCAGTAACCGGAGTCACCTAGTGCAG
Test Target: OsWOX13 (Oryza sativa, UniProt Q5QMM3 1-267)
Readout Type: binding signal
Result: 33500 fluorescence intensity (a.u.)

# per-item lookup of binding signal; items listed below
1. AGTGATTAGATTAGTGAACTGATTAACATTTCTTGTGTTCCGGAGTCACCTAGTGCAG
2. GATCTGATTGAGACATATCTGAAAATAATTTGCACGCAGACGGAGTCACCTAGTGCAG
3. CCTTAATTGTGGGGCTGACTGCTATTTTCTATATCATGTGCGGAGTCACCTAGTGCAG
4. TTTAATTGATTTTGTTTAGAATTTGAGGACATGATCCACGCGGAGTCACCTAGTGCAG
5. GATAATTGAGGGATTATTTTATGGATATACTAGATCTGCACGGAGTCACCTAGTGCAG
6. GTGCTCTAATTATTTGTATCTTACAGATAGATGACAGAGCCGGAGTCACCTAGTGCAG
7. TTAATTGATTAATTTCCTTAACCAAATCTTGGCGACTTGACGGAGTCACCTAGTGCAG

["64700 fluorescence intensity (a.u.)", "30600 fluorescence intensity (a.u.)", "56000 fluorescence intensity (a.u.)", "62900 fluorescence intensity (a.u.)", "52400 fluorescence intensity (a.u.)", "19100 fluorescence intensity (a.u.)", "61200 fluorescence intensity (a.u.)"]

# per-item lookup of binding signal; items listed below
1. CATTAAGAGTGATTGAATCTTGTTCTAAACATTAACTTTTCGGAGTCACCTAGTGCAG
2. TAATCTGTGATGATGGATTCTCGTTAAGCATATGTTCTTTCGGAGTCACCTAGTGCAG

1. 26300 fluorescence intensity (a.u.)
2. 5830 fluorescence intensity (a.u.)
